Tgt: T1, Ep-CAM (UniProt P16422 24-265, limits assumed)
T1 construct: Antigen of the Biacore analysis of ING-1 variants
T1 sequence (looked up): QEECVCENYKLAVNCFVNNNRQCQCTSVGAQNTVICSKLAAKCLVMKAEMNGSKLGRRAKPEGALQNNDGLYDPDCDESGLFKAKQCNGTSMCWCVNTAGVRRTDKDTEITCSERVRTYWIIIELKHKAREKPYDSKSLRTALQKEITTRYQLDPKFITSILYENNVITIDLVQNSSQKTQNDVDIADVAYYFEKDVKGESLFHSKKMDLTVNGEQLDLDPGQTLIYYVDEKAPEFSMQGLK
Measurement protocol: Biacore, Fab periplasmic extract
Value type: binding result

{"columns": ["Binder", "Result"],
 "data": [
  ["ING-1 heavy chain G100E (Fab, V domains shown) VH: QIQLVQSGPELKKPGETVKISCKASGYTFTKYGMNWVKQAPGKGLKWMGWINTYTEEPTYGDDFKGRFAFSLETSASTANLQINNLKSEDTATYFCARFESAVDYWGQGTSVTVSS VL: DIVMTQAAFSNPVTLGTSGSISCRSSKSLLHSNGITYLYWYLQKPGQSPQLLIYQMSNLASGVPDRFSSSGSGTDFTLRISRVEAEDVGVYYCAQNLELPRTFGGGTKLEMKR", "no binding"],
  ["ING-1 heavy chain G33N (Fab, V domains shown) VH: QIQLVQSGPELKKPGETVKISCKASGYTFTKYNMNWVKQAPGKGLKWMGWINTYTEEPTYGDDFKGRFAFSLETSASTANLQINNLKSEDTATYFCARFGSAVDYWGQGTSVTVSS VL: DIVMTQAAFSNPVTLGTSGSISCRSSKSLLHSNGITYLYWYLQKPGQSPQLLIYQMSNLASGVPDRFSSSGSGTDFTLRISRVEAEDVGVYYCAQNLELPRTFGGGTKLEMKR", "no binding"]
]}
